# experimentalTarget: human MAGL (His-hMAGL) (Homo sapiens, UniProt Q99685)
# Construct: made in house; host or cells: Escherichia coli BL21(DE3)
# Sequence (Q99685 whole entry): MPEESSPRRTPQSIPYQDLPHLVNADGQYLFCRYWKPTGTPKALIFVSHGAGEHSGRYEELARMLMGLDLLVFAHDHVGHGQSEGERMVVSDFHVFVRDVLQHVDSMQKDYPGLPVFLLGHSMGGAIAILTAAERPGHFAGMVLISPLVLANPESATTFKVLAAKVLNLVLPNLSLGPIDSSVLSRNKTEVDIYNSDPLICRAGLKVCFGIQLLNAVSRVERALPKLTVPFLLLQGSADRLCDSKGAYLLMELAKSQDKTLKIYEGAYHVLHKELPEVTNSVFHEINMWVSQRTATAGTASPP
# experimentNotes: Measurement of MAGL inhibitory activity by mass spectrometry
# Format: biochemical
# testConditions: MAGL inhibitory rate, test compound 10 μM, His-hMAGL, substrate 2-arachidonylglycerol, RapidFire-mass spectrometry
recordedMetric: inhibition at 10 µM (%)
Numbers only here, please. The scale is %.

Lookup: # input molecule: Cn1ncc2c(-c3cccc(N4CC(N5CCN(C(=O)c6nccs6)CC5)CC4=O)c3)cccc21 (stereo not drawn) ; wanted: its inhibition at 10 µM
Found: 105

Lookup: Could you do the same for O=C1CC(N2CCN(c3ncccn3)CC2)CN1c1ccc2c(ccn2-c2ncc(C(F)(F)F)cn2)c1 (stereo not drawn) , please?
Found: 83

Lookup: Request: O=C(c1nccs1)N1CCN(C2CC(=O)N(c3ccc4nc(-c5ccccc5)oc4c3)C2)CC1 (stereo not drawn)
Found: 97

Lookup: One more molecule: O=C(c1nccs1)N1CCN(C2CC(=O)N(c3cccc(-c4ccnc5sccc45)c3)C2)CC1 (stereo not drawn)
Found: 99

Lookup: Now try `O=C(c1cscn1)N1CCN([C@@H]2CC(=O)N(c3ccc4c(ccn4-c4ncc(C(F)(F)F)cn4)c3)C2)CC1` .
Found: 100

Lookup: Now consider Cn1ccnc1-c1cccc(N2CC(N3CCN(C(=O)c4nccs4)CC3)CC2=O)c1 (stereo not drawn) .
Found: 83

Lookup: Another molecule to check: `O=C(c1cscn1)N1CCN([C@@H]2CC(=O)N(c3ccc4c(ccn4-c4cccc(Cl)c4)c3)C2)CC1`
Found: 100

Lookup: Quick one: O=C(c1nccs1)N1CCN(C2CC(=O)N(c3ccc(F)c(-c4ccccc4)c3)C2)CC1 (stereo not drawn)
Found: 100

Lookup: What about Cc1cc(-n2ccc3cc(N4CC(N5CCN(C(=O)c6nccs6)CC5)CC4=O)ccc32)ccn1 (stereo not drawn) ?
Found: 101

Lookup: Same again, this time with O=C(c1nccs1)N1CCN(C2CC(=O)N(c3ccc4c(c3)CCN4C(=O)Cc3ccc(Cl)cc3)C2)CC1 (stereo not drawn)
Found: 93

Lookup: Same read-out for COc1ccccc1-c1cc(N2CC(N3CCN(C(=O)c4nccs4)CC3)CC2=O)cc2cn[nH]c12 (stereo not drawn) ?
Found: 98

Lookup: Another molecule to check: O=C1CC(N2CCN(c3ncccn3)CC2)CN1c1ccc2c(c1)CCN2c1ncc(C(F)(F)F)cn1 (stereo not drawn)
Found: 95

Lookup: Ok, now Cc1cc(-c2ccccc2)cc(N2CC(N3CCN(C(=O)c4nccs4)CC3)CC2=O)c1 (stereo not drawn)
Found: 99

Lookup: Also, O=C(c1nccs1)N1CCN(C2CC(=O)N(c3ccc(F)c(-c4ccccc4Cl)c3)C2)CC1 (stereo not drawn) please.
Found: 98

Lookup: What do we get for O=C(c1nccs1)N1CCN(C2CC(=O)N(c3cccc(-c4cccc5c4OCC5)c3)C2)CC1 (stereo not drawn) ?
Found: 104
